- TESTED_SYSTEM: CYP24 (Homo sapiens)
- Construct: kept under hygromycin selection)
- Sequence (Q07973 36-514): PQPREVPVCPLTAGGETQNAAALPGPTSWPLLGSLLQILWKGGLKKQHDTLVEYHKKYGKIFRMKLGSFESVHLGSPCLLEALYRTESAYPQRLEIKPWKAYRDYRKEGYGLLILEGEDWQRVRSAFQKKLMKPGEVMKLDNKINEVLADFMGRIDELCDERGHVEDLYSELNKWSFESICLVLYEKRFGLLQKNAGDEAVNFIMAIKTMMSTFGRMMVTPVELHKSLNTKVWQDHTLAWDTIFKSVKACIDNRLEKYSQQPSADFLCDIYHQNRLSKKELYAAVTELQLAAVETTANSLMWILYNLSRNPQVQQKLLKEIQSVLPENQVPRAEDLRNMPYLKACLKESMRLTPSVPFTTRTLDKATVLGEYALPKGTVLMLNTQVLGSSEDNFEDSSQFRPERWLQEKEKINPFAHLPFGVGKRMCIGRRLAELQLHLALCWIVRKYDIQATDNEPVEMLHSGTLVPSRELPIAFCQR
- PROTOCOL_DETAILS: CYP24 enzyme assay (V79-CYP24 cells, 3H-1α,25(OH)2D3 substrate)
- DETAILS: substrate 20 nM, 2 hours, read-out: IC50 in the inhibition of CYP24
pIC50: −log10 of the molar value.
Reported pIC50 values are given for each entry in this list.
ENDPOINT: pIC50

- C=C1/C(=C\C=C2/CCC[C@]3(C)C([C@H](C)C/C=C/C(=N\OC)C(F)(F)F)=CC[C@@H]23)C[C@@H](O)C[C@@H]1O [(20R)-I(a)]: 6.31
- C=C1/C(=C\C=C2/CCC[C@]3(C)C([C@H](C)C/C=C/C(=NOC)C(C)(C)C)=CC[C@@H]23)C[C@@H](O)C[C@@H]1O [(20R)-I(e)]: 7.68
- C=C1/C(=C\C=C2/CCC[C@]3(C)C([C@H](C)C/C=C/C(=N\OC)C4CC4)=CC[C@@H]23)C[C@@H](O)C[C@@H]1O [(20R)-I(c)]: 7.07

----------
- TESTED_SYSTEM: DBP (vitamin D binding protein) (Homo sapiens)
- Construct: Human plasma diluted to 1:5000 with Tris buffer/gelatin solution
- Sequence (P02774 17-474): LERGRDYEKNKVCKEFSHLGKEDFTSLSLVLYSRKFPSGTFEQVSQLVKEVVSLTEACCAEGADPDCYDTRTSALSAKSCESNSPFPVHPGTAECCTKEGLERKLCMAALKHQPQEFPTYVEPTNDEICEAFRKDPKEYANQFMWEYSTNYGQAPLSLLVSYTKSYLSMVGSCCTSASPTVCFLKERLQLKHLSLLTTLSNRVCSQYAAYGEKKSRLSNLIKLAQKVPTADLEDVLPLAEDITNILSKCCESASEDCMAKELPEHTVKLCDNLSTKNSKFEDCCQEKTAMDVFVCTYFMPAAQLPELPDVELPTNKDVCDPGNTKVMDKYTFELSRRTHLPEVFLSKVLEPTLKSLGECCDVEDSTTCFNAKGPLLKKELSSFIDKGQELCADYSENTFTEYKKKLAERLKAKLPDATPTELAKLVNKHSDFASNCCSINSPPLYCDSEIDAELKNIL
- PROTOCOL_DETAILS: DBP binding assay (human plasma, [3H]-25(OH)D3 displacement)
- DETAILS: human plasma diluted 1:5000; read-out: B50 (DBP binding, displacement of 50 percent [3H]-25(OH)D3)
pIC50: −log10 of the molar value.
ENDPOINT: pIC50

- C=C1/C(=C\C=C2/CCC[C@]3(C)C([C@H](C)C/C=C/C(=NOC)C(C)(C)C)=CC[C@@H]23)C[C@@H](O)C[C@@H]1O [(20R)-I(e)]: < 5.46

----------
Sequence of the target: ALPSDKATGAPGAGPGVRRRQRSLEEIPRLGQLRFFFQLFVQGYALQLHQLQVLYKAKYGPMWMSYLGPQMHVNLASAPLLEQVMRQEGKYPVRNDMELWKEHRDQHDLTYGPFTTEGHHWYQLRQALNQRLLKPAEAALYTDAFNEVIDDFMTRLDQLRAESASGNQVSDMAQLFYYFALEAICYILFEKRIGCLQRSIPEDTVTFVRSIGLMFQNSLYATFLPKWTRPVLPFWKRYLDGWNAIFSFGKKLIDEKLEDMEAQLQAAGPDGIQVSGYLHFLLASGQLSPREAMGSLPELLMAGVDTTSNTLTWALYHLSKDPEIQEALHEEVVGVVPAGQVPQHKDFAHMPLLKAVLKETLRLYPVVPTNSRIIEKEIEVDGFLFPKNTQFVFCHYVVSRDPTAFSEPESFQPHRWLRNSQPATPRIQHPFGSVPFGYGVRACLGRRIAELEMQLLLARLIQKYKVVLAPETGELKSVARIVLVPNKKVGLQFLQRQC
pIC50: −log10 of the molar value.
ENDPOINT: pIC50

• C=C1/C(=C\C=C2/CCC[C@]3(C)C([C@H](C)C/C=C/C(=NOC)C(C)(C)C)=CC[C@@H]23)C[C@@H](O)C[C@@H]1O [(20R)-I(e)] = < 6.00

----------
- TESTED_SYSTEM: VDR (Homo sapiens, UniProt P11473)
- Sequence (P11473 whole entry): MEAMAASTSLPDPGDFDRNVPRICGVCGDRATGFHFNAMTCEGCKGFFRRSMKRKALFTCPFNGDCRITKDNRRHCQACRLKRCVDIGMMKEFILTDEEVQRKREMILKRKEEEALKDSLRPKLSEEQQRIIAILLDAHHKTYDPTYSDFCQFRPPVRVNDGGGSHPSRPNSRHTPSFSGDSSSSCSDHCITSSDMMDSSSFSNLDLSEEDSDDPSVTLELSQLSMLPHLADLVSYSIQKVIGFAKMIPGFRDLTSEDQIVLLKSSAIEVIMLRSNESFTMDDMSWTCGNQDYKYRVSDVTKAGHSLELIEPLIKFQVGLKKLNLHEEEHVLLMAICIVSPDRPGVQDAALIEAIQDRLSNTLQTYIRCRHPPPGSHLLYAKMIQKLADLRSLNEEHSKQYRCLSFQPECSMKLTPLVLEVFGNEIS
- PROTOCOL_DETAILS: VDR binding assay ([3H]-1,25(OH)2D3 displacement)
- DETAILS: human recombinant VDR; read-out: B50 (VDR binding, displacement of 50 percent [3H]-1,25(OH)2D3)
ENDPOINT: IC50 (nM)

• C=C1/C(=C\C=C2/CCC[C@]3(C)C([C@H](C)C/C=C/C(=NOC)C(C)(C)C)=CC[C@@H]23)C[C@@H](O)C[C@@H]1O [(20R)-I(e)] = 60
